Kindly state pIC50 for each of the entries shown.
system: MCF7; assay: Growth inhibition of human MCF7 cells after 72 hrs by MTT assay; format: functional, cell-based; details: MCF7, 72 h
pIC50: −log10 of the molar value.

Examples from the recorded data:
O=C(CCl)Nc1c[nH]c(=O)[nH]c1=O | 4.82
O=c1ccn(COC(CO)CO)c(=O)[nH]1 | < 4.00
NCC(=O)Nc1c[nH]c(=O)[nH]c1=O | < 4.00
CSc1cc[nH]c(=O)n1 | < 4.00
Cc1ccc(S(=O)(=O)Nc2ccn(C)c(=O)n2)cc1 | < 4.00

### Prompt Please indicate recorded pIC50 of Nc1cn(COC(CO)CO)c(=O)[nH]c1=O measured with MCF7.
### Response < 4.00

---

Could you please report measured pIC50 for the items listed next?
test system: MIA PaCa-2; assay: Growth inhibition of human MIAPaCa2 cells after 72 hrs by MTT assay; assay type: functional, cell-based; settings: MIA PaCa-2, 72 h
Answers are plain numbers, as −log10 of the molar value.

O=C(CCl)Nc1c[nH]c(=O)[nH]c1=O | 4.77
O=C(CCl)Nc1cn(COC(CO)CO)c(=O)[nH]c1=O | 4.74

// below: pIC50 requested for another compound
### Prompt Give recorded pIC50. O=c1[nH]cc(F)c(=O)[nH]1 [FLUOROURACIL]
### Response 5.00

---

system: HaCaT; assay: Growth inhibition of human HaCaT cells after 72 hrs by MTT assay; assay type: cell-based
Exercise: state measured pIC50 for each of the compounds provided.
One number for each entry, as −log10 of the molar value.

O=c1[nH]cc(F)c(=O)[nH]1 | 6.40

Now let's try a different one.
### Prompt Fill in pIC50 for record COc1ccc(CSCCN(CCSCc2ccc(OC)cc2)CC(=O)Nc2c[nH]c(=O)[nH]c2=O)cc1
### Response 5.05

---

Answer each item with its documented IC50.
test system: MIA PaCa-2; assay: Growth inhibition of human MIAPaCa2 cells after 72 hrs by MTT assay; format: functional, cell-based; settings: MIA PaCa-2, 72 h

Example molecules with recorded IC50:
Cc1c(I)c(=O)[nH]c(=O)n1COC(CO)CO | > 100 µM
Cn1cc(CO)c(N)nc1=O | > 100 µM
Cc1ccc(S(=O)(=O)Nc2cc[nH]c(=O)n2)cc1 | > 100 µM
Nc1cn(COC(CO)CO)c(=O)[nH]c1=O | > 100 µM
O=c1ccn(COC(CO)CO)c(=O)[nH]1 | > 100 µM

Need IC50 for each of these molecules.
1. Cn1ccc(N)nc1=O
2. N[C@H](CSCC(=O)Nc1c[nH]c(=O)[nH]c1=O)C(=O)O
3. CSc1cc[nH]c(=O)n1
4. O=c1[nH]c(=O)n(COC(CO)CO)cc1O
5. COc1ccc(CSCCN(CCSCc2ccc(OC)cc2)CC(=O)Nc2c[nH]c(=O)[nH]c2=O)cc1
6. Cc1ccc(S(=O)(=O)Nc2ccn(C)c(=O)n2)cc1

### Response
["> 100 µM", "80 µM", "> 100 µM", "> 100 µM", "3 µM", "> 100 µM"]

Each of the following entries comes with a recorded value; kindly state IC50 for each.
1. O=c1nc(NO)cc[nH]1 [N4-hydroxycytosine]
2. CC(C)(C)OC(=O)NCCNCC(=O)Nc1c[nH]c(=O)[nH]c1=O

### Response
["> 100 µM", "50 µM"]
